- MEASUREMENT PROTOCOL: Plasma protein binding with equilibrium dialysis, human plasma
- Assay type: in vitro ADME
- EXPERIMENTAL PARAMETERS: human, pooled human plasma (with NaEDTA), pH 7.4, human plasma, equilibrium dialysis 2 hours 37° C., read-out: PPB HUM % BINDING (converted)
ENDPOINT NAME: fraction unbound at 2 h, 1 µM

# COMPOUND, OBSERVED VALUE
rows = [
    ("Cc1cnc2c(C(=O)NC3(c4ccc(C(F)(F)F)cc4F)CCOCC3)cnn2c1", 0.085),
]

(P) CC1(O)COCCC1(NC(=O)c1cnn2cc(C3CC3)cnc12)c1ccc(C(F)(F)F)cc1F (single isomer, unassigned) [Example 86a]
(Q) Cc1nn2cc(C3CC3)cnc2c1C(=O)NC1(c2ccc(C(F)(F)F)nc2)CCOCC1O (single isomer, unassigned) [Example 88b]
(R) Cc1cnc2c(C(=O)NC3(c4ccc(C(F)(F)F)cc4F)CCCOC3)cnn2c1 (racemic)
(S) Cc1cnc2c(C(=O)NC3(c4ccc(C(F)(F)F)cc4F)CCOCC3(C)O)cnn2c1 (single isomer, unassigned) [Example 83a]
Ask: Sort by fraction unbound at 2 h, 1 µM, descending. In your reply, arrange the labels in the requested order.
Result: Q, S, P, R

Attribution: patent US10023575B2
